Each recorded value in this set is attributed to the supplement of paper PMC11208160.

- protocol_details: recombinant barcode read abundance after kanamycin selection (control-corrected) (log10(CPM+1)); higher = more efficient recombination; sequences stand for … in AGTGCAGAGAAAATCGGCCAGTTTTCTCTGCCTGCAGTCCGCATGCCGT…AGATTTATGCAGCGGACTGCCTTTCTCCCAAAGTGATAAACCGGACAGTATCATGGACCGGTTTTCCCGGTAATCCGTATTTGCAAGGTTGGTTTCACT; site = the 11-nt target
outcome_measure: recombinant barcode read abundance (log10)
Enter a number only.

GCTTGAGCTTGGGTTCTAACCTGTTGCCG (site CCTTGAGCTCA); 0.0954
CGTTCGACTTGGGTTCTAACCTGTTGCAT (site CGTCCGACTAT); 0.0713
CTACACCCTTGGGTTCTAACCTGTTGCTT (site CTACATCCTAA); 0.22

Looking up TATACTACTTGGGTTCTAACCTGTTGCTT (site CACACTACTAA) , I see its recombinant barcode read abundance (log10) listed as 0.0534

Looking up TCATGGGCTTGGGTTCTAACCTGTTGCAG (site AGGGTTCCTAA) , I see its recombinant barcode read abundance (log10) listed as 0.457

Looking up GCGTACTCTTGGGTTCTAACCTGTTGCCT (site GCGGACTCTTG) , I see its recombinant barcode read abundance (log10) listed as 0.0368

Looking up AACTCAACTTGGGTTCTAACCTGTTGCCT (site AACTTAACTAG) , I see its recombinant barcode read abundance (log10) listed as 0.107

Looking up TTAGTAGCTTGGGTTCTAACCTGTTGCCT (site TTAGTTGCTAG) , I see its recombinant barcode read abundance (log10) listed as 0.0874

Looking up CTCAAGGCTTGGGTTCTAACCTGTTGCGT (site CTCAAGGCTAC) , I see its recombinant barcode read abundance (log10) listed as 1.6

###

- protocol_details: recombinant barcode read abundance after kanamycin selection (control-corrected) (log10(CPM+1)); higher = more efficient recombination; sequences stand for … in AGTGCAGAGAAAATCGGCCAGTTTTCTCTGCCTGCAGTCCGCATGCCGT…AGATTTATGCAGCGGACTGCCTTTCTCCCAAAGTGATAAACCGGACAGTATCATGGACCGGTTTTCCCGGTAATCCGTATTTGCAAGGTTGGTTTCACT; site = the 11-nt target
recombinant barcode read abundance (log10) listing for selected sequences.
Enter a number only.

CCTATGTCTTGGGTTCTAACCTGTTGCTA (site CCTATGTCTTA); 0.528
GGAATACCTTGGGTTCTAACCTGTTGCCT (site GGAATGCCTAG); 0.0994
TAACATACTTGGGTTCTAACCTGTTGCAT (site TAACGTACTAT); 0.233

Next sequence, please.
Looking up AACGCTCCTTGGGTTCTAACCTGTTGCGG (site AACGCTCCTCC) , I see its recombinant barcode read abundance (log10) listed as 0.503

###

- protocol_details: recombinant barcode read abundance after kanamycin selection (control-corrected) (log10(CPM+1)); higher = more efficient recombination; sequences stand for … in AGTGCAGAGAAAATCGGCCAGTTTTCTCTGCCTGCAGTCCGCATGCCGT…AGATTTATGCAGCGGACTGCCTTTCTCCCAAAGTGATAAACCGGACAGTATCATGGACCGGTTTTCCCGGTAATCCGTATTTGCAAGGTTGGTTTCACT; site = the 11-nt target
recombinant barcode read abundance (log10) listing for selected sequences.
Enter a number only.

Worked set:
GTTCGAGCTTGGGTTCTAACCTGTTGCGG (site ATTCGAGCTCC); 1.74
AGTCCTGCTTGGGTTCTAACCTGTTGCCT (site TGTCCTGCTAG); 0.0318
CCTAAGCCTTGGGTTCTAACCTGTTGCGT (site CCTAAACCTAC); 1.23

Looking up CTTGAGCCTTGGGTTCTAACCTGTTGCGT (site CTTGAGCCTAC) , I see its recombinant barcode read abundance (log10) listed as 2.87

Looking up AAGCACTCTTGGGTTCTAACCTGTTGCCT (site AAGCATTCTAG) , I see its recombinant barcode read abundance (log10) listed as 0

Looking up TTAAATCCTTGGGTTCTAACCTGTTGCCT (site ATAAATCCTAG) , I see its recombinant barcode read abundance (log10) listed as 0.143

Looking up CGCGCTCCTTGGGTTCTAACCTGTTGCCT (site CGCGGTCCTAG) , I see its recombinant barcode read abundance (log10) listed as 0.0941

Looking up CTTAAATCTTGGGTTCTAACCTGTTGCCT (site CTTAAATCTAG) , I see its recombinant barcode read abundance (log10) listed as 0.0558

Looking up TGATATGCTTGGGTTCTAACCTGTTGCCT (site TGATATGCTAG) , I see its recombinant barcode read abundance (log10) listed as 0.463

Looking up TCCAAAGCTTGGGTTCTAACCTGTTGCTA (site TCCTAAGCTTA) , I see its recombinant barcode read abundance (log10) listed as 0.251

Looking up TCGGGAACTTGGGTTCTAACCTGTTGCCT (site TCGCGAACTAG) , I see its recombinant barcode read abundance (log10) listed as 0.502

Looking up CCATCCACTTGGGTTCTAACCTGTTGCCT (site CCATCCACTAG) , I see its recombinant barcode read abundance (log10) listed as 0.318

Looking up GCTCGTGCTTGGGTTCTAACCTGTTGCCT (site GCACGTGCTAG) , I see its recombinant barcode read abundance (log10) listed as 0.69

###

- protocol_details: recombinant UMI read abundance after kanamycin selection (control-corrected) (log10(CPM+1)); higher = more efficient recombination; extreme values may be limits of the assay; sequences stand for … in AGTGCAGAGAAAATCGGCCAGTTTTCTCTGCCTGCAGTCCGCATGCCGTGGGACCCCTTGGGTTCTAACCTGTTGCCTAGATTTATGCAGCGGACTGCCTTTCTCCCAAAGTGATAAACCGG…AGGTTGGTTTCACT; site = the 11-nt donor
# recombinant UMI read abundance (log10) >= 0.01 gives Fulfilled, anything below gives Not fulfilled

Please tell me: is the sequence GTTCGGGCATGGACCGGTTTTCCCGGTAATCCGTATTTGCA (site GTTCGTGCTTG) at or over 0.01 in terms of recombinant UMI read abundance (log10)? Fulfilled

Please tell me: is the sequence TGGGTATCATGGACCGGTTTTCCCGGTAATCCGTATTTGCA (site TGGGTATCTTG) at or over 0.01 in terms of recombinant UMI read abundance (log10)? Fulfilled

###

- protocol_details: recombinant barcode read abundance after kanamycin selection (control-corrected) (log10(CPM+1)); higher = more efficient recombination; sequences stand for … in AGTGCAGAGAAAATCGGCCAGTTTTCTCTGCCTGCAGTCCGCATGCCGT…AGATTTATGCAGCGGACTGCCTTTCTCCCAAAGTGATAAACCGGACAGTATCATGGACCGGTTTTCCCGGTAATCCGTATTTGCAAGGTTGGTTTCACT; site = the 11-nt target
outcome_measure: recombinant barcode read abundance (log10)
Enter a number only.

Worked set:
GAGGCTTCTTGGGTTCTAACCTGTTGCCT (site GCGGCTTCTAG); 0.435
AATAACTCTTGGGTTCTAACCTGTTGCCT (site AATAACTCTAG); 0.863
TACTATCCTTGGGTTCTAACCTGTTGCCT (site TACTATACTAG); 0.0496
TTGAGCTCTTGGGTTCTAACCTGTTGCCT (site TTGAACTCTAG); 0.0507
AAGCGTTCTTGGGTTCTAACCTGTTGCCT (site AAGCGTTCTAG); 1.54
CTAGCCTCTTGGGTTCTAACCTGTTGCAT (site CTAACCTCTAT); 0.739

Looking up TAGTGGTCTTGGGTTCTAACCTGTTGCTA (site TAGTGGTCTTA) , I see its recombinant barcode read abundance (log10) listed as 1.01

###

recombinant UMI read abundance (log10) listing for selected sequences.
- protocol_details: recombinant UMI read abundance after kanamycin selection (control-corrected) (log10(CPM+1)); higher = more efficient recombination; extreme values may be limits of the assay; sequences stand for … in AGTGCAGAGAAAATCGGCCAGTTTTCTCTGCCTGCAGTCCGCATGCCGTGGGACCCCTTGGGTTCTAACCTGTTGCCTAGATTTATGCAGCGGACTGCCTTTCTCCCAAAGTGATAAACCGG…AGGTTGGTTTCACT; site = the 11-nt donor
Enter a number only.

Looking up GGCATATCATGGACCGGTTTTCCCGGTAATCCGTATTTGCA (site GGCATATCTTG) , I see its recombinant UMI read abundance (log10) listed as 1.57

Looking up CGAGGACCATGGACCGGTTTTCCCGGTAATCCGTATTTGGG (site CGAAGACCTCC) , I see its recombinant UMI read abundance (log10) listed as 0

Looking up CCATCATCATGGACCGGTTTTCCCGGTAATCCGTATTTGTT (site CCATCATCTAA) , I see its recombinant UMI read abundance (log10) listed as 0.00419
